Source: the Human Domainome abundance scans (Beltran et al. 2025)

B1: Ankyrin repeat and SOCS box protein 14, residues 532 to 572; numbered along this chain, A6NK59 (parent)
chain: RSLKHLCRLKIRKCMGRLHLRCPVFMSFLPLPNRLKAYVLY

- Variants of: B1
- Assay Explanation: abundance fitness (aPCA) (normalised: wild type 0, dead -1); higher = more abundant; growth selection in yeast, the domain comes from the species named
- Condition Details: Homo sapiens
Answer not met if abundance fitness is under -0.2, and met if it is -0.2 or more.

These recorded examples may help you get a feel for the data.
- Mutation Spec: "L20M"
  Label Value: "met"
- Mutation Spec: "H19T"
  Label Value: "not met"
- Mutation Spec: "P23H"
  Label Value: "not met"
- Mutation Spec: "C22K"
  Label Value: "not met"
- Mutation Spec: "L18N"
  Label Value: "not met"
- Mutation Spec: "M15S"
  Label Value: "not met"
- Mutation Spec: "M15L"
  Label Value: "met"
- Mutation Spec: "P23A"
  Label Value: "met"
- Mutation Spec: "K36L"
  Label Value: "not met"
- Mutation Spec: "R12A"
  Label Value: "not met"

Request: Determine whether measured abundance fitness meets or exceeds -0.2 for `V24S`
Result: met

Request: Could you please find out whether `P23Y` has abundance fitness that meets -0.2 or exceeds it?
Result: met
